Attribution: the RNAGym collection of RNA variant scans (doi:10.7554/elife.90254)

B1: LINE1-full (parent)
chain: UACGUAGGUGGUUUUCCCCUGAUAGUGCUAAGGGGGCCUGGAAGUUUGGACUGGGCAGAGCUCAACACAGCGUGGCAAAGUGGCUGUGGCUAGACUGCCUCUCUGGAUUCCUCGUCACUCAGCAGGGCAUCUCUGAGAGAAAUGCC

# Variants of: B1
# Procedure Summary: self-cleavage, relative activity (ratio to wild type); higher = more cleavage; in vitro, sequencing; the parent is a self-cleaving ribozyme
Classification by self-cleavage | ranges: low group (below 0.1), middle group (0.1 to below 0.9), high group (0.9 or more)

Some solved entries appear below for comparison.
Sequence Variant	Group
A31U U87C	middle group
U45C C63A	middle group
U29C A92U	middle group
A43C	high group
A50C A64U	middle group

Please classify: U109C
high group

Now consider A121G C123U .
high group
